Molecular target: T1, PSGL-1 endogenously expressed on HL-60 cells (UniProt Q14242 42-412)
T1 construct: whole, on cells
T1 sequence (looked up): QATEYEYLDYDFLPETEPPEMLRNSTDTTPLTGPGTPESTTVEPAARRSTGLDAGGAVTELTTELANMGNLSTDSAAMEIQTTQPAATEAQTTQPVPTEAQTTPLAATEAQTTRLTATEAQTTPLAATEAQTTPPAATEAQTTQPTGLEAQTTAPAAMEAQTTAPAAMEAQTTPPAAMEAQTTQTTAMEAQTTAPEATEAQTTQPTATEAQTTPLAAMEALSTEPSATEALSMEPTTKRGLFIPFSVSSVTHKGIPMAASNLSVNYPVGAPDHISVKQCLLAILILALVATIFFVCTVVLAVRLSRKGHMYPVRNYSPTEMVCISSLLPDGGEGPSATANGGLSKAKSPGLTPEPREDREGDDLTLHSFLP
Assay: flow cytometry on HL-60 cells; against parent 20I15
Reported HL-60 EC50 (normalized) values for the following binders.
Numeric answer only, unit fold assumed.

Answered examples (2):
INSERT INTO results (binder, numeric_result) VALUES
  ('20I15.005 (antibody, IgG4, V domains shown, Humanised) VH: EVQLVESGGGLVQPGGSLRLSCAASGFTFTDYYMSWVRQAPGKGLEWLGFIRNKANGYTTEYSASVKGRFTISRDNSKNSLYLQMNSLKTEDTAVYYCARTYLRRGYFDVWGQGTLVTVSS VL: DIVLTQSPSTLSASVGDRVTITCRASKSVSTSGYSYMHWFQQKPGKAPKLLIYLASNLESGVPSRFSGSGSGTDFTLTISSLQPDDFATYYCQHSRELPLTFGQGTKLEIK', 0.9),
  ('20I15.006 (antibody, IgG4, V domains shown, Humanised) VH: EVQLVESGGGLVQPGGSLRLSCAASGFTFTDYYMSWVRQAPGKGLEWLGFIRNKASGYTTEYSASVKGRFTISRDNSKNSLYLQMNSLKTEDTAVYYCARTYLRRGYFDVWGQGTLVTVSS VL: DIVLTQSPSTLSASVGDRVTITCRASKSVSTSGYSYMHWFQQKPGKAPKLLIYLASNLESGVPSRFSGSGSGTDFTLTISSLQPDDFATYYCQHSRELPLTFGQGTKLEIK', 0.6);

Continue with the next binder.
[Q] Using the record for 20I15 (antibody, V domains shown, From mouse immunisation; only variable domains given; also called 20115) VH: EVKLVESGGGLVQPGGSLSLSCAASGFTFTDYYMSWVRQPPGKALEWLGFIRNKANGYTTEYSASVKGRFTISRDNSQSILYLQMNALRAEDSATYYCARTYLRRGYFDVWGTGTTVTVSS VL: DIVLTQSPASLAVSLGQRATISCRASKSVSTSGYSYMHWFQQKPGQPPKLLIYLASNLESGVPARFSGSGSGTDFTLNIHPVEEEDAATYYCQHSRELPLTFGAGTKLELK , state its measured HL-60 EC50 (normalized).
[A] 1
